settings: 288.15 K; 101.3 kPa; Liquid
experimentalReadout: mass density (kg/m3)
// units = kg/m3; emit number, no label

Recorded mass density, per entry:
Q: I am curious: what mass density value has been reported for CCO [ethanol] ?
Result: 793.644

Q: I am curious: what mass density value has been reported for Cc1ccccc1 [toluene] ?
Result: 871.457

Q: I am curious: what mass density value has been reported for c1ccccc1 [benzene] ?
Result: 884.183

Q: I am curious: what mass density value has been reported for CC(C)CC(C)(C)C [2,2,4-trimethylpentane] ?
Result: 695.948

---
Q: I am curious: what mass density value has been reported for CCc1ccccc1 [ethylbenzene] ?
Result: 870.736
